Origin of measurements: patent US10968178B2

# Subject Of Test: human IP6K1 (Homo sapiens)
# Construct: human IP6K1 (1-441) gene; GST; made in house; host or cells: Sf-9 insect cells
# Sequence (Q92551 whole entry): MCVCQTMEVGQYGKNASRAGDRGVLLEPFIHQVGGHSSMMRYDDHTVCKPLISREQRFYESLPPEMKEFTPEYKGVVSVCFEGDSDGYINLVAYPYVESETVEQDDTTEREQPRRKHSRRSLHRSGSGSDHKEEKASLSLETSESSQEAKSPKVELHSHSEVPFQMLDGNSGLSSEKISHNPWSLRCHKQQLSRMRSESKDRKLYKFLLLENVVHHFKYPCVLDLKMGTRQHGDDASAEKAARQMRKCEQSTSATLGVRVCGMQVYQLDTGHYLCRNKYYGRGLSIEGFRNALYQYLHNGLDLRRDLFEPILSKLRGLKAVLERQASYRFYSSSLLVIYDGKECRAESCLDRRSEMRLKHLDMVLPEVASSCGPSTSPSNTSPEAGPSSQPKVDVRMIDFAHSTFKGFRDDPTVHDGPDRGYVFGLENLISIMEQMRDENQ
# Assay Method Text: IP6K enzyme inhibitory assay (ADP-Glo Kinase Assay), human IP6K1
# Format: biochemical
# Condition Summary: compound concentration 0.1 μM; read-out: ADP-Glo method inhibitory rate (%) human IP6K1
# Description: IP6K Enzyme Inhibitory Assay Human IP6K3 enzyme was prepared by transducing human IP6K3 (1-410) gene into BL21 (DE3) Escherichia coli and purifying by Ni-NTA (nickel-nitrilotriacetic acid) affinity column. […] The IP6K enzyme inhibitory activity of the test compound was measured by the following experiment method and using ADP-Glo™ Kinase Assay (manufactured by Promega). […] After the reaction, the luminescence intensity was measured by a plate reader Envision (manufactured by PerkinElmer).
Experimental Endpoint: inhibition at 0.1 µM (%)

Compound	Numeric Result
O=C(O)c1ccc2c(n1)[C@]1(CC[C@H](Oc3ncc(C(F)(F)F)cc3Cl)CC1)C(=O)N2	97
Cc1cccc(O[C@H]2CC[C@@]3(CC2)C(=O)Nc2ccc(C(=O)O)cc23)c1F	96
O=C(O)c1ccc2c(c1)[C@]1(CC[C@@H](Oc3c(Cl)cc(Cl)cc3Cl)CC1)C(=O)N2	101
O=C(O)c1ccc2c(n1)[C@]1(CC[C@@H](Oc3ccc(F)cc3F)CC1)C(=O)N2	69
O=C(O)c1ccc2c(c1)[C@]1(CC[C@@H](Oc3ccc(F)cn3)CC1)C(=O)N2	72
O=C(O)c1ccc2c(c1)[C@]1(CC[C@@H](Oc3ccc(F)c(F)c3)CC1)C(=O)N2	96
Cc1cc(Cl)cnc1O[C@H]1CC[C@]2(CC1)C(=O)Nc1ccc(C(=O)O)nc12	96
Cc1ccccc1O[C@H]1CC[C@@]2(CC1)C(=O)Nc1ccc(C(=O)O)cc12	93

* * *

# Subject Of Test: human IP6K3 (Homo sapiens)
# Construct: human IP6K3 (1-410) gene; made in house; host or cells: BL21 (DE3) Escherichia coli
# Sequence (Q96PC2 whole entry): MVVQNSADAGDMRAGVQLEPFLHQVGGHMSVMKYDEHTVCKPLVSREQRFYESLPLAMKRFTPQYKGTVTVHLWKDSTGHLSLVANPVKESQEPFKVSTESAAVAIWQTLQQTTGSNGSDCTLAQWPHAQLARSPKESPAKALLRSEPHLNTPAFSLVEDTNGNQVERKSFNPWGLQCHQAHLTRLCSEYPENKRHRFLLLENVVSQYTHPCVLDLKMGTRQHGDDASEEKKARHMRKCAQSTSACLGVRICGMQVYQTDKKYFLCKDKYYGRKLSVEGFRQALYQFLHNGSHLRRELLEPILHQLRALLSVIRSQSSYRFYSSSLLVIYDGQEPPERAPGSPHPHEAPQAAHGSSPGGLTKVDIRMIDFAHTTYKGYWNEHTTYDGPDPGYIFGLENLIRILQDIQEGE
# Assay Method Text: IP6K enzyme inhibitory assay (ADP-Glo Kinase Assay), human IP6K3
# Assay type: biochemical
# Condition Summary: compound concentration 0.1 μM; read-out: ADP-Glo method inhibitory rate (%) human IP6K3
Experimental Endpoint: inhibition at 0.1 µM (%)

Sample records with inhibition at 0.1 µM:
Compound	Subject Of Test	inhibition at 0.1 µM, %
O=C(O)c1ccc2c(c1)[C@]1(CC[C@@H](Oc3cccc(F)c3F)CC1)C(=O)N2 [Example 59]	human IP6K3 (Homo sapiens)	97
N#Cc1ccc(O[C@H]2CC[C@@]3(CC2)C(=O)Nc2ccc(C(=O)O)cc23)cc1F [Example 61]	human IP6K3 (Homo sapiens)	100
Cc1ccc(O[C@H]2CC[C@@]3(CC2)C(=O)Nc2ccc(C(=O)O)cc23)cc1F [Example 52]	human IP6K3 (Homo sapiens)	96
O=C(O)c1ccc2c(c1)[C@]1(CC[C@H](Oc3ncc(F)cc3F)CC1)C(=O)N2 [Example 13]	human IP6K3 (Homo sapiens)	100
O=C(O)c1ccc2c(c1)[C@]1(CC[C@@H](Oc3cc(F)ccc3F)CC1)C(=O)N2 [Example 56]	human IP6K3 (Homo sapiens)	99
O=C(O)c1ccc2c(c1)[C@]1(CC[C@@H](Oc3ccccc3Cl)CC1)C(=O)N2 [Example 12]	human IP6K3 (Homo sapiens)	101

a: O=C(O)c1ccc2c(n1)[C@]1(CC[C@@H](Oc3ccc(Cl)cc3C(F)(F)F)CC1)C(=O)N2 [Example 95]
b: Cc1cc(Cl)cc(C)c1O[C@H]1CC[C@]2(CC1)C(=O)Nc1ccc(C(=O)O)nc12 [Example 89]
### Prompt // compare measured inhibition at 0.1 µM, left a , right b , return larger Please reply using the label of the selected record.
### Response a
